- Tested on: Staphylococcus epidermidis
- Measurement description: Antibacterial activity against Staphylococcus epidermidis 12228 after 24 hrs
- Format: functional
- Experimental conditions: Staphylococcus epidermidis, 12228, 24 h
Positions of bridges follow the written chain, without caps; N, C: chain ends. Non-standard residues stand in square brackets, D forms with d. Residues, ends and D or L forms follow the SMILES beside them. dNMeF = CN[C@H](Cc1ccccc1)C(=O)O
Could you please report measured MIC for the items listed next?

(Q) Look up MIC for this compound: CC[C@@H](C)[C@@H](NC(=O)[C@@H](CCC(N)=O)NC(=O)[C@H](CCCNC(=N)N)NC(=O)[C@@H](NC(=O)[C@@H](Cc1ccccc1)NC)[C@@H](C)CC)C(=O)N[C@H](C(=O)N[C@@H](CO)C(=O)N[C@H]1C(=O)N[C@@H](C)C(=O)N[C@@H](CC(C)C)C(=O)N[C@@H]([C@@H](C)CC)C(=O)O[C@H]1C)[C@@H](C)CC (H-[dNMeF]IR[dQ][dI]IS[dT]ALI; ester 8-C)
(A) < 0.0625 µg/mL

(Q) Next compound: CC[C@@H](C)[C@@H](NC(=O)[C@@H](CCCNC(=N)N)NC(=O)[C@H](CO)NC(=O)[C@@H](NC(=O)[C@@H](Cc1ccccc1)NC)[C@@H](C)CC)C(=O)N[C@H](C(=O)N[C@@H](CO)C(=O)N[C@H]1C(=O)N[C@@H](C)C(=O)N[C@@H](CC(C)C)C(=O)N[C@@H]([C@@H](C)CC)C(=O)O[C@H]1C)[C@@H](C)CC
(A) < 0.0625 µg/mL

(Q) Next compound: CC[C@@H](C)[C@@H](NC(=O)[C@@H](CCC(N)=O)NC(=O)[C@H](CCCNC(=N)N)NC(=O)[C@@H](NC(=O)[C@@H](Cc1ccccc1)NC)[C@@H](C)CC)C(=O)N[C@H](C(=O)N[C@@H](CO)C(=O)N[C@H]1C(=O)N[C@@H](C)C(=O)N[C@@H]([C@@H](C)CC)C(=O)N[C@@H]([C@@H](C)CC)C(=O)O[C@H]1C)[C@@H](C)CC
(A) < 0.0625 µg/mL

###

- Test system: Staphylococcus saprophyticus
- Measurement description: Antibacterial activity against Staphylococcus saprophyticus ATCC 15305 after 24 hrs
- Format: functional
- Experimental conditions: ATCC 15305, 24 h
Positions of bridges follow the written chain, without caps; N, C: chain ends. Non-standard residues stand in square brackets, D forms with d. Residues, ends and D or L forms follow the SMILES beside them. dNMeF = CN[C@H](Cc1ccccc1)C(=O)O
Assay endpoint: MIC (µg/mL)
Answer format: numeric, µg/mL implied, no suffix.

(Q) Any idea what MIC came out for CC[C@@H](C)[C@@H](NC(=O)[C@@H](CCCNC(=N)N)NC(=O)[C@H](CCCNC(=N)N)NC(=O)[C@@H](NC(=O)[C@@H](Cc1ccccc1)NC)[C@@H](C)CC)C(=O)N[C@H](C(=O)N[C@@H](CO)C(=O)N[C@H]1C(=O)N[C@@H](CCCNC(=N)N)C(=O)N[C@@H](CC(C)C)C(=O)N[C@@H]([C@@H](C)CC)C(=O)O[C@H]1C)[C@@H](C)CC (H-[dNMeF]IR[dR][dI]IS[dT]RLI; ester 8-C) on Staphylococcus saprophyticus?
(A) 0.25
